tested on: human PCSK9 locus; assay: Secreted PCSK9 by ELISA in Huh7 cells transfected with mRNA and gRNA; assay type: cell-based; conditions: Huh7 cells, LTRP5-ADD-ZIM3 mRNA, day 6, averaged from the two doses
We label by threshold. Values of Average percent reduction in PCSK9 secretion strictly beneath 60% are yes. Values of 60% and up are no.

[[record]]
substance = "TG-06-169 (guide CGGGGUUGGGAGACCCGGAG; listed as RNA, chemistry not given here)"
class = "yes"

[[record]]
substance = "TG-06-121 (guide GGAAGGGCUGUCGAUACUGG; listed as RNA, chemistry not given here)"
class = "yes"

[[record]]
substance = "TG-06-125 (guide AGAAAGAGCAAGCCUCAUGU; listed as RNA, chemistry not given here)"
class = "yes"

[[record]]
substance = "TG-06-123 (guide UCCCAGUAUCGACAGCCCUU; listed as RNA, chemistry not given here)"
class = "yes"

[[record]]
substance = "TG-06-142 (guide UUCCACUGGCCUUAACCUGG; listed as RNA, chemistry not given here)"
class = "no"

[[record]]
substance = "TG-06-153 (guide GUUAAUGUUUAAUCAGAUAG; listed as RNA, chemistry not given here)"
class = "yes"

